assay: self-splicing fitness, log relative to wild type (ln ratio); higher = more splicing; Tetrahymena group I intron in knt gene, E. coli kanamycin selection, DiMSum; sequences stand for … in CUCUCU…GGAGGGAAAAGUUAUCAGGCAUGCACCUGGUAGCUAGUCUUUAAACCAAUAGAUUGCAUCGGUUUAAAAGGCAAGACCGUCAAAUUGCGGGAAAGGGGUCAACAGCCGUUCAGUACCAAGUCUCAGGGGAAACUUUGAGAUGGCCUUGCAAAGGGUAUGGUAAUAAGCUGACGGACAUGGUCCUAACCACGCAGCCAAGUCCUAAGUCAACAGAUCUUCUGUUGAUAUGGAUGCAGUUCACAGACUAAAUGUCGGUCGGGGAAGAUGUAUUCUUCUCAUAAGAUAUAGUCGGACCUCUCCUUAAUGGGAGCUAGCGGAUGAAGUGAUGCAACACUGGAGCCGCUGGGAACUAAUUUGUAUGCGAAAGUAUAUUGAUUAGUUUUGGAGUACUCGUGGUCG; conditions: 30 °C;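 further: selection with 25 µg/mL kanamycin versus none on LB agar overnight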
Listed below: self-splicing fitness (ln) values for each entry.
Would you mind answering with just the numeric figure?

Here are 3 sequences together with their reported answers.
macromolecule-sequence: AUCAAGCAAUAUUACGCGAC
observed: -2.01

macromolecule-sequence: AUUGAGCAAUAUUACGAACA
observed: -3.6

macromolecule-sequence: ACCAAGCAAUAUUACGAACC
observed: -1.62

Request: Tell me the measured self-splicing fitness (ln) of GCUCAGCAAUAUUACGUGUC , please.
Response: -1.55

Request: Continue with GCCAAGCAAUAUUACGGAGU
Response: -0.992

Request: Param item: AAUAAGCAAUAUUACGGGUG
Response: -1.59

Request: Next sequence up: CACUAGCAAUAUUACGGGGC
Response: -3.4

Request: Now try GAGGAGCAAUAUUACGGGCA .
Response: -1.33
